B1: ACSBG2 (parent)
chain: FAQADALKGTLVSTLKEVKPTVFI

Variants of: B1
Experiment: protein stability index of a GFP-peptide fusion (GPS, HEK-293T) (PSI 1-6); higher = more stable;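 also: lentivirally expressed fusions sorted by FACS into six bins by GFP to DsRed ratio, PSI derived from sequencing read proportions per bin multiplied by bin number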
Conditions: c terminus: a fixed tail appended
As shown below, each of these variants has a reported protein stability index value.
readout.label: protein stability index

L15S ... 1.96
F1S ... 2
T21R ... 2
V22S ... 2.05
F1Y ... 1.96
V18S ... 1.98
L15P ... 2
K16A ... 1.97
T14V ... 2.05
G9M ... 2.03
